Measured pEC50 of individual entries
targetUnderTest: OA/TAMac receptor (Macrobrachium rosenbergii)
Sequence (D9U2B9 entry or part of it): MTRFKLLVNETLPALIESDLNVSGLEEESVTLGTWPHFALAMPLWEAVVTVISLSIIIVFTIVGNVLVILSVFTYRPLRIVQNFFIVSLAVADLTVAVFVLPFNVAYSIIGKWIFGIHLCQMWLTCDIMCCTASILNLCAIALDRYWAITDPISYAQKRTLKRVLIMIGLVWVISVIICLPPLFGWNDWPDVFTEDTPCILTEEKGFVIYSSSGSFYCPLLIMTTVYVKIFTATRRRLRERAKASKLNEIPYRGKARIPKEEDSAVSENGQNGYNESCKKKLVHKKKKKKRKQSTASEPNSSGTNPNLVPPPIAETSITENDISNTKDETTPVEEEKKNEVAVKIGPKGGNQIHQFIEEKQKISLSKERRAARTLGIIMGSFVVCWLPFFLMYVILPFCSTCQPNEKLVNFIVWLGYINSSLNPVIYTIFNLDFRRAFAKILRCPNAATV
method: Agonist-evoked direct-current (ID) in Xenopus oocytes injected with OA/TAMac cRNA, two-electrode voltage clamp
conditionInfo: 30 second perfusion-switch, voltage clamped at −60 mV; approximate, estimated graphically from plot; read-out: EC50 of transmitter evoked direct-current (ID), normalized I/Imax
pEC50: −log10 of the molar value.

Some solved entries appear below for comparison.
Asked: System OA/TAMac receptor (Macrobrachium rosenbergii). Read-out pEC50. Item NCCc1ccc(O)c(O)c1 . Report value.
Given back: ~4.20

Asked: System OA/TAMac receptor (Macrobrachium rosenbergii). Read-out pEC50. Item NCC(O)c1ccc(O)cc1 (racemic) [octopamine, (+/−)-octopamine] . Report value.
Given back: ~4.68

Please look at the following compound next.
Asked: System OA/TAMac receptor (Macrobrachium rosenbergii). Read-out pEC50. Item NCCc1ccc(O)cc1 . Report value.
Given back: ~6.70

The origin of these recorded values is paper PMC4211885.
